assayed-system: androgen receptor (AR) (Homo sapiens, UniProt P10275, T878A)
Sequence (P10275 whole entry T878A): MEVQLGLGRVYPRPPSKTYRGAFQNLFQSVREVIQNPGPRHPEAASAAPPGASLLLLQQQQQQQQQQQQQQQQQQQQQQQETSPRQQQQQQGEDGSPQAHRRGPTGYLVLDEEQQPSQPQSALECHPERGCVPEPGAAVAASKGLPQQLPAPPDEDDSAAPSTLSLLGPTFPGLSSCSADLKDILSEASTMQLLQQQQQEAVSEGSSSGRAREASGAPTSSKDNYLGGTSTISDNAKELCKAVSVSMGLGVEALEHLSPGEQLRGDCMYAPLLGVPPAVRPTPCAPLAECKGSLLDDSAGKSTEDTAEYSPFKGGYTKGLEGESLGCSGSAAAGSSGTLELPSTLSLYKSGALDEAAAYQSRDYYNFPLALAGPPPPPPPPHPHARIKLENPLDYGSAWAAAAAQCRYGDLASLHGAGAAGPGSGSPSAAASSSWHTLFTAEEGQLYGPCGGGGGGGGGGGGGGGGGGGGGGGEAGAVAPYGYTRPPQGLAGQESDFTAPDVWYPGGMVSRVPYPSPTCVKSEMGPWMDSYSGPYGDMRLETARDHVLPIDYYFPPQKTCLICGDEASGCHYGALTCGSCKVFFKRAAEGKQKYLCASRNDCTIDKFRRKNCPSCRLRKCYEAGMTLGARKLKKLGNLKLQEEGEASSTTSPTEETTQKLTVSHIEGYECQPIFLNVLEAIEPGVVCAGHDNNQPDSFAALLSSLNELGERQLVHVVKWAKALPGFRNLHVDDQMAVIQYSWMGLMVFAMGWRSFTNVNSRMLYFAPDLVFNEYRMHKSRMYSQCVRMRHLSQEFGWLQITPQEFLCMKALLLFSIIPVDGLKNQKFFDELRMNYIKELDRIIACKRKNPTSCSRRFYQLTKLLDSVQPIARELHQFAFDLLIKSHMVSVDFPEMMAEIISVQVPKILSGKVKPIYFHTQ
procedure-text: eGFP cellular AR transcription assay (LNCaP eGFP cells, LN-ARR2PB-eGFP)
test-parameters: eGFP IC50 (μM), LNCaP eGFP cells
Can you tell me IC50 for the items I'm about to list?
Give the number; µM is assumed, so skip it.

Look up IC50 with androgen receptor (AR) (Homo sapiens, UniProt P10275, T878A) for this molecule: C/C(=N/O)c1ccc2c(C)ccc3c2c1CC3 [Compound 14171]
3.38

Same again, this time with CCC1CN(c2nc3ccccc3s2)CCO1 (stereo not shown) [Compound 14392]
7.07

Repeat for the following molecule: N#Cc1cc2ccccc2nc1N1CCOCC1 [Compound 14433]
1.95

Next entry: Oc1ccccc1/C=C/c1ccccn1 [Compound 14088]
3.54

Now try c1ccc2nc(-c3ccncc3)ccc2c1 [Compound 14320] .
4.2

Same again, this time with c1cc2c3c(ccc(-c4ccn[nH]4)c3c1)CC2 [Compound 14053]
4

Another: c1ccc2nc(N3CCCCC3)ccc2c1 [Compound 14495]
0.6

Can you check N#Cc1ccc(-c2nc3ccccc3s2)cc1 [Compound 14489] next?
1.79

Try the molecule Nc1nc(-c2ccc3c(c2)CCCC3)cs1 [Compound 14198]
5.51

Try the molecule CC(=O)Nc1cccc(NC(=O)c2ccc(C)c(-n3cccc3)c2)c1 [Compound 14010]
32.5

Nc1ccc2nc(-c3cccc(O)c3)sc2c1 [Compound 14387] , same question.
14.8

Follow-up item: O=[N+]([O-])c1cccc2ccc(N3CCOCC3)nc12 [Compound 14398]
0.82

Now consider NC(=S)N/N=C1\C(=O)c2cccc3cccc1c23 [Compound 14151] .
30

Ok, now Fc1ccc2sc(N3CCOCC3)nc2c1F [Compound 14409]
0.36

And the next one, Cc1cc(N2CCOCC2)nc2ccccc12 [Compound 14434] ?
1.09

Next entry: Oc1cccc(N2Cc3ccccc3C2)c1 [Compound 14309]
0.75

Follow-up item: c1ccc2cc(-n3ccnc3)ccc2c1 [Compound 14018]
13.9

Same for CNC(=S)N/N=C1\C(=O)c2cccc3cccc1c23 [Compound 14153]
6

Note, next up: c1ccc2sc(N3CCOCC3)nc2c1 [Compound 14393]
46.6

Also, NC(=S)N/N=C1\Cc2cccc3cccc1c23 [Compound 14005] please.
2

And c1ccc2c(-n3ccnc3)cccc2c1 [Compound 14163] ?
24

Same lookup for CCSc1ccc(-c2cc(C)nc(N)n2)cc1 [Compound 14055] , please.
10

Record: NC(=S)N/N=C1\CCCc2ccccc21 [Compound 14175]
13.6

How about Brc1ccc2nc(N3CCOCC3)ccc2c1 [Compound 14452] ?
0.11

Ok, now c1ccc(-c2ccc3ccccc3n2)cc1 [Compound 14390]
2.6
